Origin of the recorded values: the Human Domainome abundance scans (Beltran et al. 2025)

B1: DnaJ homolog subfamily C member 2, residues 451 to 503; numbered along this chain, Q99543 (parent)
chain: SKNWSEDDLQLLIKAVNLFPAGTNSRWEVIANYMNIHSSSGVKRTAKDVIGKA

- Variants of: B1
- PROCEDURE_SUMMARY: abundance fitness (aPCA) (normalised: wild type 0, dead -1); higher = more abundant; growth selection in yeast, the domain comes from the species named
- EXPERIMENTAL_CONTEXT: Homo sapiens
Record Fulfilled whenever abundance fitness is at -0.1 or higher; record Not fulfilled when lower.

variant_description=N17D class_name=Fulfilled
variant_description=K52R class_name="Not fulfilled"
variant_description=Q10I class_name="Not fulfilled"
variant_description=I36P class_name="Not fulfilled"

Is the recorded value of abundance fitness equal to or greater than -0.1 for this variant? A15S
Not fulfilled

And what about the variant A21I ?
Not fulfilled

And what about the variant Y33G ?
Not fulfilled

And what about the variant S40A ?
Fulfilled

And what about the variant T23K ?
Not fulfilled
